Cited source for all entries: paper PMC4568483

I'd appreciate it if you could supply pIC50 values for the items below.
# Tested on: 3T3 spheroids
# assay.notes: Spheroid toxicity assay (contraction of magnetically 3D bioprinted spheroids, mobile device imaging)
# Assay type: cell-based, murine
# cond: Mus musculus, 2.5 h; 3D; endpoint rate of contraction over 150 min
# Experimental: The spheroid toxicity assay was designed to rapidly assess toxicity in M3DB spheroids (Fig. 1A)[26]. […] M3DB spheroids and their contraction were imaged using a mobile device-based imaging system (Fig. 1B)[26]. […] When the spheroids had finished contracting, the images were transferred to a computer where they were analyzed using a custom image analysis code written in Python that processed thousands of images in hours. […]
One number for each entry, as −log10 of the molar value.

Use these answered entries as a reference point.
# compound, pIC50
rows = [
    ("CC1=C(/C=C/C(C)=C/C=C/C(C)=C/C(=O)O)C(C)(C)CCC1 [ATRA, all-trans retinoic acid]", 4.08),
    ("COc1cccc2c1C(=O)c1c(O)c3c(c(O)c1C2=O)C[C@@](O)(C(=O)CO)C[C@@H]3O[C@H]1C[C@H](N)[C@H](O)[C@H](C)O1 [Doxorubicin, doxorubicin]", 4.33),
    ("C[C@@H]1C[C@H]2[C@@H]3CCC4=CC(=O)C=C[C@]4(C)[C@@]3(F)[C@@H](O)C[C@]2(C)[C@@]1(O)C(=O)CO [Dexamethasone, dexamethasone]", 4.07),
]

The record that follows has no pIC50 shown yet.
Incoming: Report pIC50 for C=C[C@@]1(C)CC(=O)[C@]2(O)[C@@]3(C)[C@@H](O)CCC(C)(C)[C@@H]3[C@H](O)[C@H](OC(C)=O)[C@@]2(C)O1 [Forskolin, forskolin]
Outgoing: 5.33
